// data source = ChEMBL document CHEMBL1201861

We begin with a simple list: items and their reported pIC50.
# System: EPLC-272H
# testDescription: cells
# Assay type: functional, cell-based
# experimentalParameters: Homo sapiens
# Description: SANGER: Inhibition of human EPLC-272H cell growth in a cell viability assay.
pIC50: −log10 of the molar value.
measurementKind: pIC50

> print(dat)
                                   molecule  measurementkind  resultmodifier  observedmeasurement
1  COc1ccc(-c2ccc3c(N4CCOC[C@@H]4C)nc(N4CCOC[C@@H]4C)nc3n2)cc1CO [AZD-8055]            pIC50               =                 6.37
2  COc1cc(F)c(F)c(Nc2ccc(I)cc2F)c1NS(=O)(=O)C1(CC(O)CO)CC1 (stereo not given)            pIC50               =                 6.73
3  Cc1cc([C@@H](C)Nc2ccccc2C(=O)O)c2nc(N3CCOCC3)cc(=O)n2c1 [AZD-6482]            pIC50               <                 5.29
4  Nc1ccn([C@@H]2O[C@H](CO)[C@@H](O)[C@@H]2O)c(=O)n1 [CYTARABINE]            pIC50               =                 5.84
5  CC(=O)O[C@@H]1[C@@H](OC(C)=O)[C@@H](O)[C@H](Oc2c(-c3ccc(O)cc3)oc3cc(O)cc(O)c3c2=O)O[C@H]1C            pIC50               <                 5.00
